All values here come from the kinase profiling compilation of Christmann-Franck et al. (2016).

# SYSTEM_UNDER_TEST: INSR (human) (UniProt P06213)
# Sequence (P06213 whole entry, looked up): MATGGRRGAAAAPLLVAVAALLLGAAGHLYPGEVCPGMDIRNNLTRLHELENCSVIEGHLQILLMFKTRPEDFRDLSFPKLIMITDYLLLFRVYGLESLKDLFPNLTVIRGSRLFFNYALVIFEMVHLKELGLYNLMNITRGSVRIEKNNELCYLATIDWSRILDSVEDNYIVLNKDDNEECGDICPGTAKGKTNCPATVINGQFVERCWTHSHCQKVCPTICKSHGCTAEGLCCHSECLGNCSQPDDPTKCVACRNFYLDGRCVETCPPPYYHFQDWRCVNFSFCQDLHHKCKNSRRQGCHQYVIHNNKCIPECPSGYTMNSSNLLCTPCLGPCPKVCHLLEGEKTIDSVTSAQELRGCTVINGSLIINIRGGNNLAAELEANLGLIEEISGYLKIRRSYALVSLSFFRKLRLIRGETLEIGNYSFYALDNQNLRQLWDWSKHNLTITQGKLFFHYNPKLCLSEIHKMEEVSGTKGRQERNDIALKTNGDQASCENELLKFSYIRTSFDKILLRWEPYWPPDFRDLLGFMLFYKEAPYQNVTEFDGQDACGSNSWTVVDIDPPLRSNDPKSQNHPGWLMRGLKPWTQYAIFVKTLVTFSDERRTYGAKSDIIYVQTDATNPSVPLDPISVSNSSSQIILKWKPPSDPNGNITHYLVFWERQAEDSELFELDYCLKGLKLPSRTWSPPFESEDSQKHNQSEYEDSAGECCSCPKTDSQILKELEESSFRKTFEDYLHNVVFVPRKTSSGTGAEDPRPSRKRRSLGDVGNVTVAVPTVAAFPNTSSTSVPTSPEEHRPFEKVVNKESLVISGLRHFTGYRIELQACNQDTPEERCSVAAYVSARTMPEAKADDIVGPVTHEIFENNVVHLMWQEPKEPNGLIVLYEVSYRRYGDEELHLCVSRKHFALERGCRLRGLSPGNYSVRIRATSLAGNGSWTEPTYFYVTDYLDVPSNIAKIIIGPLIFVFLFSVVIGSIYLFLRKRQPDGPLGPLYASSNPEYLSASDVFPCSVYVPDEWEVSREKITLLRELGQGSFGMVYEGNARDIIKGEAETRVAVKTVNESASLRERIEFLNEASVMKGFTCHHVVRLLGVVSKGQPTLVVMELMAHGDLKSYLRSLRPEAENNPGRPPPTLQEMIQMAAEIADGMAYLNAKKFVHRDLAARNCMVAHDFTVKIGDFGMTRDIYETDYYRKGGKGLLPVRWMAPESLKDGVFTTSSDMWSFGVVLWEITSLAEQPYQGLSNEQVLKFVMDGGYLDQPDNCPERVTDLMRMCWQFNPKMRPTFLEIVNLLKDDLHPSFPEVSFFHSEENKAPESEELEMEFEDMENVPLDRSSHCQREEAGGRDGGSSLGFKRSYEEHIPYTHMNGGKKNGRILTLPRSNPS
# MEASUREMENT_PROTOCOL: radiometric filter-binding kinase assay
# CONDITION: compound 0.1 µM
residual activity reference
MEASURED_QUANTITY: residual activity (%)

{"SMILES_REPR": "NC(=O)c1cc(-c2ccnc(NC3CCCCC3)c2)nc(N2CCNCC2)c1", "SYSTEM_UNDER_TEST": "INSR (human) (UniProt P06213)", "MEASURED_QUANTITY": "residual activity", "READING": 89}
{"SMILES_REPR": "Cc1cccc(-c2nn(C(=S)Nc3ccccc3)cc2-c2ccnc3ccccc23)n1", "SYSTEM_UNDER_TEST": "INSR (human) (UniProt P06213)", "MEASURED_QUANTITY": "residual activity", "READING": 108}
{"SMILES_REPR": "CCCCCc1ccc(/C=C/[C@H](O)[C@@H](CO)NC)cc1", "SYSTEM_UNDER_TEST": "INSR (human) (UniProt P06213)", "MEASURED_QUANTITY": "residual activity", "READING": 107}
{"SMILES_REPR": "NC(=O)Nc1ccc2c(c1)/C(=C/c1cc(-c3cccnc3)c[nH]1)C(=O)N2", "SYSTEM_UNDER_TEST": "INSR (human) (UniProt P06213)", "MEASURED_QUANTITY": "residual activity", "READING": 112}
{"SMILES_REPR": "C/C(=C1/C(=O)Nc2ccc(NC(N)=O)cc21)c1ccc[nH]1", "SYSTEM_UNDER_TEST": "INSR (human) (UniProt P06213)", "MEASURED_QUANTITY": "residual activity", "READING": 110}
{"SMILES_REPR": "CN(C)C/C=C/C(=O)Nc1cccc(C(=O)Nc2ccc(Nc3nccc(-c4cccnc4)n3)cc2)c1", "SYSTEM_UNDER_TEST": "INSR (human) (UniProt P06213)", "MEASURED_QUANTITY": "residual activity", "READING": 81}
{"SMILES_REPR": "COc1cc(O)c2c(c1)/C=C/C[C@H](O)[C@H](O)C(=O)/C=C\\C[C@H](C)OC2=O", "SYSTEM_UNDER_TEST": "INSR (human) (UniProt P06213)", "MEASURED_QUANTITY": "residual activity", "READING": 110}
